Target: T1, Recombinant soluble integrin αvβ3 (UniProt P06756 31-992; P05106 27-718)
T1 construct: Soluble heterodimer made 'as described [22]'; also called soluble αvβ3; αvβ3 protein
T1 sequence (P06756 31-992, chain 1 of 2): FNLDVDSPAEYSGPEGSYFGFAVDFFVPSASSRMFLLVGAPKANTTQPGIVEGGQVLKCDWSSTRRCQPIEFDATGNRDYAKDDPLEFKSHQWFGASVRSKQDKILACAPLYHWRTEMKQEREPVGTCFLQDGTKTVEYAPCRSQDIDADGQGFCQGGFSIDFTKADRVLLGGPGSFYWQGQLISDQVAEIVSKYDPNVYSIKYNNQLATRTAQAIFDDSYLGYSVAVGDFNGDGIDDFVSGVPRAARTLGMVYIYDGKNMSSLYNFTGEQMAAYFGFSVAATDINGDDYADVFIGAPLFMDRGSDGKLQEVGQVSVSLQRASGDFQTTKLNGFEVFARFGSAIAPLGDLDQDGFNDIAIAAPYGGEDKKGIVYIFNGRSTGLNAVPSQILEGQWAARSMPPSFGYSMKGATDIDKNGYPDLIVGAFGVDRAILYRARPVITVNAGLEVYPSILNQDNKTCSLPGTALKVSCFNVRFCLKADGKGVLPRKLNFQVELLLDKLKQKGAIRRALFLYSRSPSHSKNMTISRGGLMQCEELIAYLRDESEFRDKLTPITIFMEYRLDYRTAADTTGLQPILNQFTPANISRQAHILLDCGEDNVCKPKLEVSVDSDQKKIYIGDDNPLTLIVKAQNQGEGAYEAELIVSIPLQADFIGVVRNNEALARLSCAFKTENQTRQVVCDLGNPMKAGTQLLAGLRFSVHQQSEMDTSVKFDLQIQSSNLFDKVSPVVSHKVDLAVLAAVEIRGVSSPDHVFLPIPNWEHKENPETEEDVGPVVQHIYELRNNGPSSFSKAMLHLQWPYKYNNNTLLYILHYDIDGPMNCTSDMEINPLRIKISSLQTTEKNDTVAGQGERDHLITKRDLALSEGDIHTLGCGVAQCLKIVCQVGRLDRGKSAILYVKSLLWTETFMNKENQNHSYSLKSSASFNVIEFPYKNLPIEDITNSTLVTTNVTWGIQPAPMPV
T1 sequence (P05106 27-718, chain 2 of 2): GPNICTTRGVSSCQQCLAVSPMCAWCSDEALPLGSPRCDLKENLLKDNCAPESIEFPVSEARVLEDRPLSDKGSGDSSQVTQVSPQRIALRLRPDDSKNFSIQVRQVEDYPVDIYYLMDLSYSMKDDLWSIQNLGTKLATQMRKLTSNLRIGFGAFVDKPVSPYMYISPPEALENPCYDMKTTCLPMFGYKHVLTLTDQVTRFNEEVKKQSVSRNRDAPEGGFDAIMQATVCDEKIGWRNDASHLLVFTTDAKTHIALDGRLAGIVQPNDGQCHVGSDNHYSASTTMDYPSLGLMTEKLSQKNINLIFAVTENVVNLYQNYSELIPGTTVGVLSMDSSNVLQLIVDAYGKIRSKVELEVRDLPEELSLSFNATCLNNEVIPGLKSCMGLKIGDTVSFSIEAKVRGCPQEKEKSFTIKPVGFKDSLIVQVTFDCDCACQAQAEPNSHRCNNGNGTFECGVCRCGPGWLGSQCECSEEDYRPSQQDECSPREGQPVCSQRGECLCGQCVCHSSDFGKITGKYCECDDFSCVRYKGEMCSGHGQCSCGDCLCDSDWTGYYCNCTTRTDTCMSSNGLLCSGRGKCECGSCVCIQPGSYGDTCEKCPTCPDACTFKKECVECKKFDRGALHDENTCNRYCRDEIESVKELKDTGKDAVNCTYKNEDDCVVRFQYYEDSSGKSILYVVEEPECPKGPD
Test: SPR; soluble αvβ3 immobilized on CM5 chip, HBD as analyte, 1 mM Mn2+
pKd: −log10 of the molar value.

{"binder": "VEGF165 heparin-binding domain (HBD, residues 111-165), wild type (ligand) QALARASGRGGRVARRGAEESGPPHSPSRRGSASRAGPGRASETMNFLLSWVHWS", "pKd": 6.33}
